Molecular target: T1, human RXFP1 (human, UniProt Q9HBX9 1-757)
T1 sequence (looked up): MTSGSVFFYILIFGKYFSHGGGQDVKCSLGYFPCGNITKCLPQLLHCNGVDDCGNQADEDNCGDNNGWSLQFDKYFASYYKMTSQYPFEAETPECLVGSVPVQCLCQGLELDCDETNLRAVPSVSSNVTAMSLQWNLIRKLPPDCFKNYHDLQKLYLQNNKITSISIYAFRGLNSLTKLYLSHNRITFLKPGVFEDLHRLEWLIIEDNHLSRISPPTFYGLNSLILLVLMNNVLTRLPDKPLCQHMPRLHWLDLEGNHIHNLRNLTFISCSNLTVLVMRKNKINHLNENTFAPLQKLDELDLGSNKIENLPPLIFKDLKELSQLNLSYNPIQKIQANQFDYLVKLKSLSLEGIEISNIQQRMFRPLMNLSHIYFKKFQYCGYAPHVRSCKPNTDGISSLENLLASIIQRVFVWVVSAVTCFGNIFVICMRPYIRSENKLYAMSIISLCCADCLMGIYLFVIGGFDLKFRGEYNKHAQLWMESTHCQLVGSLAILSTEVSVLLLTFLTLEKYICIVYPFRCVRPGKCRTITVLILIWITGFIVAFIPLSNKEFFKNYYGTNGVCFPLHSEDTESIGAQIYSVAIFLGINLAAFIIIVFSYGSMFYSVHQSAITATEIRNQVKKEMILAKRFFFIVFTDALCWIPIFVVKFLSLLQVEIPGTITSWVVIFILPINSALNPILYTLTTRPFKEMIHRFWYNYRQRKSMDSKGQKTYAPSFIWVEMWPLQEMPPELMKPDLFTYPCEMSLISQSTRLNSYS
Assay: cell-based or functional assay
Numbered stars: 1 amine (or outer) side, 2 acyl side, 3 side chain; on linkers, the order of the positions; unused ones are H or OH. Square brackets hold non-standard residues; d marks the D form. Side chains are listed from the residue outwards. * marks the point of attachment. TTDS = 4-[3-[2-[2-(3-aminopropoxy)ethoxy]ethoxy]propylamino]-4-oxo-butanoyl; γGlu = O=C(O)[C@H](CCC(=O)[*:2])N[*:1]; Stearoyl = CCCCCCCCCCCCCCCCCC(=O)*; Palmitoyl = CCCCCCCCCCCCCCCC(=O)*; Myristoyl = CCCCCCCCCCCCCC(=O)*; αMeK = C[C@](N)(CCCCN)C(=O)O; hLys = NCCCCC[C@H](N)C(=O)O; Aib = CC(C)(N)C(=O)O
endpoint-label: EMax, OVCAR 5 cells (cAMP) (%)

binder: Ac-LEGRERVRAK(Ac)I[Aib][Aib]EGK([TTDS-TTDS-TTDS-γGlu-γGlu-γGlu-Palmitoyl])STFS[Aib]RRK(Ac)-NH2 [Relaxin peptide analogue of SEQ ID NO: 76]
endpoint-label: EMax, OVCAR 5 cells (cAMP)
reading: 96
//
binder: Ac-LEGREKVRAK(Ac)IA[Aib]EGK([TTDS-TTDS-TTDS-γGlu-γGlu-γGlu-Palmitoyl])STFS[αMeK]RAK(Ac)-NH2 [Relaxin peptide analogue of SEQ ID NO: 90]
endpoint-label: EMax, OVCAR 5 cells (cAMP)
reading: 97
//
binder: Ac-LEGREKVRAK(Ac)I[Aib][Aib]EGK([TTDS-TTDS-γGlu-γGlu-γGlu-Stearoyl])STFS[Aib]RKK(Ac)-NH2 [Relaxin peptide analogue of SEQ ID NO: 60]
endpoint-label: EMax, OVCAR 5 cells (cAMP)
reading: 95
//
binder: Ac-LEGREKVRAKI[Aib][Aib]EGK([TTDS-TTDS-TTDS-γGlu-γGlu-γGlu-Palmitoyl])STFS[αMeK]RAK(Ac)-NH2 [Relaxin peptide analogue of SEQ ID NO: 47]
endpoint-label: EMax, OVCAR 5 cells (cAMP)
reading: 95
//
binder: Ac-LEGREKVRAK(Ac)I[Aib][Aib]EGK([TTDS-TTDS-TTDS-γGlu-γGlu-γGlu-Myristoyl])STFS[αMeK]RAK-NH2 [Relaxin peptide analogue of SEQ ID NO: 96]
endpoint-label: EMax, OVCAR 5 cells (cAMP)
reading: 92
//
binder: Ac-LEGREKVRAK(Ac)I[Aib][Aib]EGK([TTDS-TTDS-TTDS-γGlu-γGlu-γGlu-Palmitoyl])SRWS[Aib]RKK(Ac)-NH2 [Relaxin peptide analogue of SEQ ID NO: 64]
endpoint-label: EMax, OVCAR 5 cells (cAMP)
reading: 95
//
binder: Ac-LEGREKVRAK(Ac)I[Aib][Aib]EGK([TTDS-TTDS-TTDS-γGlu-γGlu-γGlu-Myristoyl])STFS[αMeK]RAK(Ac)-NH2 [Relaxin peptide analogue of SEQ ID NO: 95]
endpoint-label: EMax, OVCAR 5 cells (cAMP)
reading: 91
//
binder: Ac-LEGREKVRAK(Ac)I[Aib][Aib]EGK([TTDS-TTDS-TTDS-γGlu-γGlu-γGlu-Palmitoyl])STWS[hLys]RAK(Ac)-NH2 [Relaxin peptide analogue of SEQ ID NO: 57]
endpoint-label: EMax, OVCAR 5 cells (cAMP)
reading: 98
//
binder: Ac-LEGREKVRAK(Ac)I[Aib][Aib]EGK([TTDS-TTDS-TTDS-γGlu-γGlu-γGlu-Palmitoyl])STFSKRAK(Ac)-NH2 [Relaxin peptide analogue of SEQ ID NO: 13]
endpoint-label: EMax, OVCAR 5 cells (cAMP)
reading: 91
//
binder: Ac-LEGREKVRK(Ac)QI[Aib][Aib]EGK([TTDS-TTDS-TTDS-γGlu-γGlu-γGlu-Palmitoyl])STWS[Aib]RKK(Ac)-NH2 [Relaxin peptide analogue of SEQ ID NO: 65]
endpoint-label: EMax, OVCAR 5 cells (cAMP)
reading: 95
//
binder: Ac-LEGREKVRAK(Ac)I[Aib]IEGK([TTDS-TTDS-TTDS-γGlu-γGlu-γGlu-Palmitoyl])STFS[αMeK]RAK(Ac)-NH2 [Relaxin peptide analogue of SEQ ID NO: 84]
endpoint-label: EMax, OVCAR 5 cells (cAMP)
reading: 95
//
binder: Ac-LEGREKVRAK(Ac)I[Aib][Aib]EGK([TTDS-TTDS-γGlu-γGlu-γGlu-γGlu-Palmitoyl])STFS[αMeK]RAK(Ac)-NH2 [Relaxin peptide analogue of SEQ ID NO: 10]
endpoint-label: EMax, OVCAR 5 cells (cAMP)
reading: 95
//
binder: Ac-LEGREKVRAK(Ac)I[Aib][Aib]EGK([TTDS-TTDS-TTDS-γGlu-γGlu-γGlu-Palmitoyl])STFS[αMeK]RAK(Ac)-NH2 [Relaxin peptide analogue of SEQ ID NO: 3]
endpoint-label: EMax, OVCAR 5 cells (cAMP)
reading: 97
//
binder: Ac-LEGREKVRAK(Ac)I[Aib][Aib]EGK([TTDS-TTDS-TTDS-γGlu-γGlu-γGlu-γGlu-Myristoyl])STFS[αMeK]RAK-NH2 [Relaxin peptide analogue of SEQ ID NO: 97]
endpoint-label: EMax, OVCAR 5 cells (cAMP)
reading: 98
//
binder: Ac-LEGREKVRAK(Ac)I[Aib]IEGK([TTDS-TTDS-TTDS-γGlu-γGlu-γGlu-Palmitoyl])STWS[Aib]RKK(Ac)-NH2 [Relaxin peptide analogue of SEQ ID NO: 70]
endpoint-label: EMax, OVCAR 5 cells (cAMP)
reading: 94
//
binder: Ac-LEGRERVRAK(Ac)I[Aib][Aib]EGK([TTDS-TTDS-TTDS-γGlu-γGlu-γGlu-Palmitoyl])STWS[Aib]RKK(Ac)-NH2 [Relaxin peptide analogue of SEQ ID NO: 67]
endpoint-label: EMax, OVCAR 5 cells (cAMP)
reading: 95
//
binder: LEGREKVRAKIXXEGKSTFSKRAK (Ac-L-E-G-R-E-K-V-R-A-K(Ac)-I-Aib-Aib-E-G-K(PEG2DGA-PEG2DGA-PEG2DGA-gE-gE-gE-Stea)-S-T-F-S-Mly-R-A-K(Ac)-NH2) [Relaxin peptide analogue of SEQ ID NO: 32]
endpoint-label: EMax, OVCAR 5 cells (cAMP)
reading: 97
//
binder: Ac-LEGRERVRAK(Ac)I[Aib][Aib]EGK([TTDS-TTDS-TTDS-TTDS-γGlu-γGlu-γGlu-Palmitoyl])STFS[Aib]RRK(Ac)-NH2 [Relaxin peptide analogue of SEQ ID NO: 77]
endpoint-label: EMax, OVCAR 5 cells (cAMP)
reading: 98
